Tested on: HOP-62 NSCLC
Assay: NCI-60 one-dose screen, 48 h (100 = growth as untreated, 0 = no growth, -100 = all killed)
Settings: 10 µM unless noted
This is part of a sample that, as a whole, favours compounds with a hit. Of some 83,000 tested, about 20% had one in any assay.
One threshold, 90%, splits the recorded growth values: lower ones are Satisfied, equal or higher ones are Not satisfied.

CNc1nc2c(s1)C(c1cccc(F)c1)CC(=O)N2 (stereo not given): Not satisfied
COc1cc(/C=C/c2ccccc2)cc(OC)c1: Not satisfied
CCCCn1c(-c2ccc(C(=O)O/N=C(\N)c3ccc(OC)cc3)cc2)nc(-c2ccccc2)c1-c1ccccc1: Satisfied

Note: attention shifts to another entry.
Inquiry: growth under 90%? Item: CC/C=C\C[C@@H](O)C/C=C1/C(=O)C=C[C@H]1C/C=C\CCCC(=O)OC
Reply text: Satisfied

---

Test system: OVCAR-3 ovarian
Test: NCI-60 one-dose screen, 48 h (100 = growth as untreated, 0 = no growth, -100 = all killed)
Details: 10 µM unless noted
About 83,000 compounds went through this panel and 20% of them were active in at least one assay; those are over-represented in the sample as a whole.
property: growth (%)
Could you give me the number in %? Just the number is fine.

Cn1cc(-c2ccc3cc(-c4ccc(CC(=O)Nc5cc(C(C)(C)C)nn5C)cc4)cnc3c2)cn1: 14.2
COc1ccc(-c2nn(C(=O)c3cc(OC)c(OC)c(OC)c3)c3cc(N)ccc23)cc1: 0.527
Cc1ccc(C(C)C)cc1C(=O)C[n+]1ccccc1: 101

Inquiry: If you can, please state the reported growth value of COc1cc(C(=O)c2cnc(-c3cccc4[nH]ccc34)[nH]2)cc(OC)c1OC .
Reply text: -18.1

Inquiry: Need growth, item Cc1nc(/N=C(\N)NC(=O)Nc2ccccc2Cl)sc1C
Reply text: 12.1

---

Test system: EKVX NSCLC
Assay: NCI-60 one-dose screen, 48 h (100 = growth as untreated, 0 = no growth, -100 = all killed)
Conditions: 10 µM unless noted
This is part of a sample that, as a whole, favours compounds with a hit. Of some 83,000 tested, about 20% had one in any assay. Calls of active or inactive are those of the source. The calls were made as follows: active = growth percent below 10; inactive = the rest.
property: growth

Cc1ccc2sc3c(NCCCN)nc4ccccc4c3c(=O)c2c1: 82.7% (inactive)

Inquiry: Need growth of C/C(=N/NC(N)=S)c1sc(Nc2cccc(Cl)c2)nc1C , thanks.
Reply text: 74.1% (inactive)

Inquiry: Need growth, item COc1nc2ccc(C)cc2cc1-c1nc2c(cnn2-c2ccc(Br)cc2)c(=O)[nH]1
Reply text: 53.5% (inactive)

Inquiry: // returns reported growth for input CC(=O)c1ccc(Nc2nc(C(C)=O)c(C)s2)cc1
Reply text: 93.2% (inactive)

Inquiry: Look up growth: Cc1nc2ccccc2n1CC1C(=O)NC(=O)NC1=O
Reply text: 106% (inactive)

Inquiry: # input molecule: COc1ccc2sc3c(NCCCN(C)C)nc4ccccc4c3c(=O)c2c1 ; wanted: its growth
Reply text: 70% (inactive)

Inquiry: Entry Cc1c(C(=O)N[C@@H](Cc2ccccc2)C(=O)C(=O)NCc2ccc(F)cc2)[nH]c2ccccc2c1=O has what growth?
Reply text: 85.3% (inactive)

Inquiry: I am curious: what growth value has been reported for CCN1C(=O)N(CC)C2Nn3c(s/c(=C4\C(=O)N(CC(C)C)c5ccccc54)c3=O)=NC21 (stereo not given) ?
Reply text: 63.8% (inactive)

Inquiry: Using the record for Cc1cc2[nH]c(=O)c3c4ncccc4cn3c2cc1C , report its growth.
Reply text: 60.9% (inactive)

Origin of the recorded values: PubChem BioAssay (NCI)
